Molecular target: GLUT1 (Homo sapiens)
Sequence (P11166 1-492): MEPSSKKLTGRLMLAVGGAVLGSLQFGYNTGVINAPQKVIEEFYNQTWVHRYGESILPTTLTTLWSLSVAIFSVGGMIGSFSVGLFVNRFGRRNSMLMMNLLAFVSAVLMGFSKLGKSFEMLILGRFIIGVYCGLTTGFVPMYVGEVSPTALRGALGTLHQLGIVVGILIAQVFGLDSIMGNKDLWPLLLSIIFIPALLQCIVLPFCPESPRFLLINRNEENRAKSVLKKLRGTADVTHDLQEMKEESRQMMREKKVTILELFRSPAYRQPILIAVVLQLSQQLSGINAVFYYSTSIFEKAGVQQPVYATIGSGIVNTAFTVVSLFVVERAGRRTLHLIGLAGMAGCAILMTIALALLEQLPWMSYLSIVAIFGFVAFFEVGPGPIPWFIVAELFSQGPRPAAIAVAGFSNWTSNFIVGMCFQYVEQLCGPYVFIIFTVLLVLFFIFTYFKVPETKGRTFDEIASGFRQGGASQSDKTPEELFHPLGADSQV
Format: binding
Conditions: 50 nM [3H]-CB, 4°C, eqn 6
Each entry below lists one item and its recorded β (cooperativity parameter, second inhibitor molecule) value.
OBSERVATION_TYPE: β (cooperativity parameter, second inhibitor molecule)

- INPUT_SMILES: "C=C1[C@@H](C)[C@H]2[C@H](Cc3ccccc3)NC(=O)[C@]23OC(=O)/C=C/C(=O)CCC[C@@H](C)C/C=C/[C@H]3[C@@H]1O"
  VALUE_OBSERVED: 1.11
- INPUT_SMILES: "C=C[C@@]1(C)CC(=O)[C@]2(O)[C@@]3(C)[C@@H](O)CCC(C)(C)[C@@H]3[C@H](O)[C@H](OC(C)=O)[C@@]2(C)O1"
  VALUE_OBSERVED: 1.54
- INPUT_SMILES: "C=C1[C@@H](C)[C@H]2[C@H](Cc3ccccc3)NC(=O)[C@]23[C@H](OC(C)=O)/C=C/[C@](C)(O)C[C@@H](C)C/C=C/[C@H]3[C@@H]1O"
  VALUE_OBSERVED: 249
- INPUT_SMILES: "C=C[C@@]1(C)CC(=O)[C@]2(O)[C@@]3(C)[C@@H](OC(C)=O)CCC(C)(C)[C@@H]3[C@H](OC(C)=O)[C@H](OC(C)=O)[C@@]2(C)O1"
  VALUE_OBSERVED: 1480
